test.system: human GPR84 receptor (Homo sapiens, UniProt Q9NQS5)
Construct: frozen aliquots prepared by acCELLerate
Sequence (Q9NQS5 whole entry): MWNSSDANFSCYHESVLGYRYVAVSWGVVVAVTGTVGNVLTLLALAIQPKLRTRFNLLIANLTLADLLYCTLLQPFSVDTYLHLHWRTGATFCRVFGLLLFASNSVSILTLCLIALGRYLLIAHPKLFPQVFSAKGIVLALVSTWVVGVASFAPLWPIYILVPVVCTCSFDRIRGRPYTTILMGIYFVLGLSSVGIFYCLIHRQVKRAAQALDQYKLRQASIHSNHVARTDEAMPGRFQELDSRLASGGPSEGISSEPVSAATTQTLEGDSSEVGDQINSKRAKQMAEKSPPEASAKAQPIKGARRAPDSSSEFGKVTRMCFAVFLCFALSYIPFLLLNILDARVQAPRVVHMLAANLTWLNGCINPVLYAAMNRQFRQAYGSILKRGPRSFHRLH
method.summary: cAMP HTRF assay for identification of cellular GPR84 antagonists
condition.details: CHO-K1 cells stably expressing human GPR84; Forskolin + agonist 6-OAU (EC80); average or median values
Consider the cut-off 90 nM. If the recorded IC50 is strictly smaller, the label is label 1; if not, the label is label 0.

(Q) Given the entry Cc1c(C(=O)NC[C@@H]2COCCO2)oc2c1-c1nn(CC3CC3)cc1CC2 , would its reported IC50 be below 90 nM?
(A) label 0

(Q) Given the entry Cc1c(C(=O)NC[C@@H]2CCCO2)oc2c1-c1nn(Cc3ncc(F)cc3Cl)cc1CC2 , would its reported IC50 be below 90 nM?
(A) label 0

(Q) Given the entry Cc1c(C(=O)NC[C@@H]2CCCO2)oc2c1-c1nn(C[C@H]3CCCO3)cc1CC2 , would its reported IC50 be below 90 nM?
(A) label 1

(Q) Given the entry CC1CCC(CNC(=O)c2oc3c(c2C(F)(F)F)-c2nn(C[C@H]4COCCO4)cc2CC3)O1 (mixture of isomers) , would its reported IC50 be below 90 nM?
(A) label 1

(Q) Given the entry Cc1c(C(=O)NC[C@H]2OCC[C@H]2C)oc2c1-c1nn(Cc3ccccn3)cc1CC2 (racemic) , would its reported IC50 be below 90 nM?
(A) label 0

(Q) Given the entry Cc1c(C(=O)NC[C@@H]2CCCO2)oc2c1-c1nn(Cc3ccc(C#N)cn3)cc1CC2 , would its reported IC50 be below 90 nM?
(A) label 0

(Q) Given the entry O=C(NC[C@@H]1COCCO1)c1oc2c(c1C(F)(F)F)-c1nn(C[C@H]3COCCO3)cc1C1(CCC1)C2 , would its reported IC50 be below 90 nM?
(A) label 1

(Q) Given the entry Cc1c(C(=O)NCC2CCC3(COC3)O2)oc2c1-c1nn(C[C@H]3COCCO3)cc1C1(CC1)C2 (mixture of isomers) , would its reported IC50 be below 90 nM?
(A) label 1

(Q) Given the entry Cc1cnc(CNC(=O)c2oc3c(c2C(F)(F)F)-c2nn(C[C@H]4COCCO4)cc2CC3)cn1 , would its reported IC50 be below 90 nM?
(A) label 1

(Q) Given the entry Cc1c(C(=O)NC[C@@H]2CCCO2)oc2c1-c1nn(C[C@@H]3CN(C)CCO3)cc1CC2 , would its reported IC50 be below 90 nM?
(A) label 0

(Q) Given the entry CCc1ccc(Cn2cc3c(n2)-c2c(oc(C(=O)NC[C@@H]4CCCO4)c2C)CC3)cn1 , would its reported IC50 be below 90 nM?
(A) label 1

(Q) Given the entry O=C(NC[C@@H]1COCCO1)c1oc2c(c1C(F)(F)F)-c1nn(CC3CCN(CC4CC4)CC3)cc1CC2 , would its reported IC50 be below 90 nM?
(A) label 0

(Q) Given the entry Cc1c(C(=O)NC[C@@H]2COCCO2)oc2c1-c1nn(CC3CN(C(=O)OC(C)(C)C)C3)cc1CC2 , would its reported IC50 be below 90 nM?
(A) label 1

(Q) Given the entry Cc1c(C(=O)NC[C@@H]2CCCO2)oc2c1-c1nn(Cc3noc(C4CC4)n3)cc1CC2 , would its reported IC50 be below 90 nM?
(A) label 1

(Q) Given the entry Cc1c(C(=O)NC[C@@H]2COCCO2)oc2c1-c1nn(C[C@@H]3CCCO3)cc1CC2 , would its reported IC50 be below 90 nM?
(A) label 1

(Q) Given the entry Cc1c(C(=O)NCC2(C)CCCO2)oc2c1-c1nn(Cc3ccccn3)cc1CC2 (racemic) , would its reported IC50 be below 90 nM?
(A) label 0

(Q) Given the entry Cc1c(C(=O)NCc2ccon2)oc2c1-c1nn(Cc3ccccn3)cc1CC2 , would its reported IC50 be below 90 nM?
(A) label 0

(Q) Given the entry Cc1c(C(=O)NCC2(F)COC2)oc2c1-c1nn(Cc3ccccn3)cc1CC2 , would its reported IC50 be below 90 nM?
(A) label 0

(Q) Given the entry CN1CCC(Cn2cc3c(n2)-c2c(oc(C(=O)NC[C@@H]4COCCO4)c2C(F)(F)F)CC3)CC1 , would its reported IC50 be below 90 nM?
(A) label 0

(Q) Given the entry [2H]C([2H])(c1ccccc1)n1cc2c(n1)-c1c(oc(C(=O)NC[C@@H]3CCCO3)c1C)CC2 , would its reported IC50 be below 90 nM?
(A) label 1

(Q) Given the entry O=C(NCc1ncco1)c1oc2c(c1C(F)(F)F)-c1nn(C[C@H]3COCCO3)cc1C1(CCC1)C2 , would its reported IC50 be below 90 nM?
(A) label 1

(Q) Given the entry Cc1c(C(=O)NC[C@@H]2COCCO2)oc2c1-c1nn(C[C@@H]3CCO3)cc1CC2 , would its reported IC50 be below 90 nM?
(A) label 0

(Q) Given the entry Cc1c(C(=O)NCC2CCC(C)O2)oc2c1-c1nn(C[C@H]3COCCO3)cc1C1(CC1)C2 (mixture of isomers) , would its reported IC50 be below 90 nM?
(A) label 0

(Q) Given the entry Cc1c(C(=O)NC[C@@H]2CCCO2)oc2c1-c1nn(Cc3cncnc3)cc1CC2 , would its reported IC50 be below 90 nM?
(A) label 0

(Q) Given the entry Cc1c(C(=O)NC[C@@H]2CCCO2)oc2c1-c1nn(Cc3ncco3)cc1CC2 , would its reported IC50 be below 90 nM?
(A) label 0

(Q) Given the entry Cc1c(C(=O)NC[C@H]2COCCO2)oc2c1-c1nn(Cc3ccccn3)cc1CC2 , would its reported IC50 be below 90 nM?
(A) label 0

(Q) Given the entry Cc1ccc(Cn2cc3c(n2)-c2c(oc(C(=O)NC[C@@H]4COCCO4)c2C)CC3)c(C)n1 , would its reported IC50 be below 90 nM?
(A) label 0

(Q) Given the entry Cc1c(C(=O)NC[C@@H]2CCCO2)oc2c1-c1nn(Cc3cccnn3)cc1CC2 , would its reported IC50 be below 90 nM?
(A) label 0
